# TARGET SYSTEM: Human immunodeficiency virus type 1 integrase (Human immunodeficiency virus 1, UniProt Q7ZJM1)
# Sequence (Q7ZJM1 whole entry): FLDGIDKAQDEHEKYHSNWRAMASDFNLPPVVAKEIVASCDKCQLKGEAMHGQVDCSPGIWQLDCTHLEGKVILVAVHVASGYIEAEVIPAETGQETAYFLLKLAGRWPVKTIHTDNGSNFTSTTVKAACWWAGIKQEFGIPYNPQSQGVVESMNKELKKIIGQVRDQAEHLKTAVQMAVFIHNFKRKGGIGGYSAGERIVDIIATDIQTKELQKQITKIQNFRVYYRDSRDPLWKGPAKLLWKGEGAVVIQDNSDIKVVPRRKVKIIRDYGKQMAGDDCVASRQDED
# TEST METHOD NOTES: Inhibition of HIV1 integrase strand transfer activity in presence of magnesium
MEASURED METRIC: IC50 (nM)
API: value field is a number in nM; no unit string.

Here are 3 compounds together with their reported answers.
O=C1c2ccc(O)c(O)c2C(=O)N1Cc1cccc(Br)c1; 400
O=C1c2ccc(O)c(O)c2C(=O)N1Cc1cc(F)c(F)cc1F; 500
O=C1c2ccc(O)c(O)c2C(=O)N1Cc1c(F)ccc(F)c1Cl; 4000

Field IC50 (entry "O=C1c2c(ccc(O)c2O)CN1Cc1cccc(F)c1" ) reads 21000

Field IC50 (entry "O=C1c2c(ccc(O)c2O)CN1Cc1ccc(F)cc1Cl" ) reads 2500

Field IC50 (entry "O=C1c2ccc(O)c(O)c2C(=O)N1Cc1ccc(F)c(Br)c1" ) reads 900

Field IC50 (entry "O=C1c2c(ccc(O)c2O)CN1Cc1ccc(F)c(F)c1F" ) reads 2700

Field IC50 (entry "O=C1c2ccc(O)c(O)c2C(=O)N1Cc1ccc(F)c(F)c1F" ) reads 800

Field IC50 (entry "O=C1c2ccc(O)c(O)c2C(=O)N1Cc1cccc(Cl)c1F" ) reads 2000

====

# TARGET SYSTEM: Human immunodeficiency virus type 1 integrase (Human immunodeficiency virus 1, UniProt Q7ZJM1)
# TEST METHOD NOTES: Inhibition of HIV1 integrase strand transfer activity in presence of magnesium
MEASURED METRIC: IC50 (µM)
API: value field is a number in µM; no unit string.

O=C1c2c(ccc(O)c2O)CN1Cc1ccc(F)cc1F; 0.5
O=C1c2ccc(O)c(O)c2C(=O)N1Cc1ccc(Cl)c(F)c1; 0.9
O=C1c2c(ccc(O)c2O)CN1Cc1cccc(Cl)c1F; 2
O=C1c2c(ccc(O)c2O)CN1Cc1cc(Cl)ccc1F; 1.2

Field IC50 (entry "O=C1c2ccc(O)c(O)c2C(=O)N1Cc1cccc(Cl)c1" ) reads 0.4

Field IC50 (entry "O=C1c2ccc(O)c(O)c2C(=O)N1Cc1ccc(Cl)c(Cl)c1" ) reads 0.12

Field IC50 (entry "O=C1c2c(ccc(O)c2O)CN1Cc1cc(F)ccc1F" ) reads 27

Field IC50 (entry "O=C1c2ccc(O)c(O)c2C(=O)N1Cc1ccc(F)cc1" ) reads 5

Field IC50 (entry "O=C1c2ccc(O)c(O)c2C(=O)N1Cc1c(F)c(F)c(F)c(F)c1F" ) reads 1.3

====

Entries and their IC50 values follow.
# TARGET SYSTEM: Human immunodeficiency virus type 1 integrase (Human immunodeficiency virus 1)
# TEST METHOD NOTES: Inhibition of HIV1 integrase 3'-processing activity in presence of magnesium

Summary line: "O=C1c2c(ccc(O)c2O)CN1Cc1ccc(F)c(Br)c1" , Human immunodeficiency virus type 1 integrase (Human immunodeficiency virus 1), reported IC50 = 34 µM

Summary line: "O=C1c2ccc(O)c(O)c2C(=O)N1Cc1ccccc1" , Human immunodeficiency virus type 1 integrase (Human immunodeficiency virus 1), reported IC50 = 72 µM

Summary line: "O=C1c2ccc(O)c(O)c2C(=O)N1Cc1ccc(Cl)c(F)c1" , Human immunodeficiency virus type 1 integrase (Human immunodeficiency virus 1), reported IC50 = 58 µM

Summary line: "O=C1c2c(ccc(O)c2O)CN1Cc1cc(Cl)c(F)cc1F" , Human immunodeficiency virus type 1 integrase (Human immunodeficiency virus 1), reported IC50 = > 333 µM

Summary line: "O=C1c2c(ccc(O)c2O)CN1Cc1ccc(Cl)c(Cl)c1" , Human immunodeficiency virus type 1 integrase (Human immunodeficiency virus 1), reported IC50 = 89 µM

Summary line: "O=C1c2c(ccc(O)c2O)CN1Cc1cc(F)c(F)c(F)c1" , Human immunodeficiency virus type 1 integrase (Human immunodeficiency virus 1), reported IC50 = 99 µM

Summary line: "O=C1c2ccc(O)c(O)c2C(=O)N1Cc1ccc(F)c(Br)c1" , Human immunodeficiency virus type 1 integrase (Human immunodeficiency virus 1), reported IC50 = 11 µM

====

# TARGET SYSTEM: Human immunodeficiency virus type 1 integrase (Human immunodeficiency virus 1, UniProt Q7ZJM1)
# TEST METHOD NOTES: Inhibition of HIV1 integrase strand transfer activity in presence of magnesium
Entries and their log10 of IC50 values follow.
A difference of one corresponds to tenfold IC50; all values are log10 with IC50 in nM.

Here are 8 compounds together with their reported answers.
O=C1c2ccc(O)c(O)c2C(=O)N1Cc1c(F)ccc(F)c1F; 3.26
O=C1c2ccc(O)c(O)c2C(=O)N1Cc1ccc(F)c(Cl)c1; 2.23
O=C1c2c(ccc(O)c2O)CN1Cc1c(F)cccc1F; 4.30
O=C1c2c(ccc(O)c2O)CN1Cc1ccc(Cl)c(Cl)c1; 2.00
O=C1c2c(ccc(O)c2O)CN1Cc1cccc(I)c1; 3.60
O=C1c2c(ccc(O)c2O)CN1Cc1c(F)c(F)c(F)c(F)c1F; 3.90
O=C1c2c(ccc(O)c2O)CN1Cc1ccccc1F; 4.40
O=C1c2ccc(O)c(O)c2C(=O)N1Cc1cc(Cl)c(F)cc1F; 2.60

Field log10 of IC50 (entry "O=C1c2c(ccc(O)c2O)CN1Cc1cc(F)c(F)cc1F" ) reads 3.57

Field log10 of IC50 (entry "O=C1c2c(ccc(O)c2O)CN1Cc1ccc(Cl)c(F)c1" ) reads 3.78

Field log10 of IC50 (entry "O=C1c2c(ccc(O)c2O)CN1Cc1cc(F)cc(F)c1" ) reads 2.48

Field log10 of IC50 (entry "O=C1c2c(ccc(O)c2O)CN1Cc1cccc(F)c1F" ) reads 2.85

Field log10 of IC50 (entry "Cc1cc(CN2Cc3ccc(O)c(O)c3C2=O)ccc1F" ) reads 2.95

Field log10 of IC50 (entry "O=C1c2ccc(O)c(O)c2C(=O)N1Cc1c(F)cccc1Cl" ) reads 3.54

====

# Test system: Human immunodeficiency virus 1
# TEST METHOD NOTES: Antiviral activity against VSV-g-pseudotyped HIV1 assessed as inhibition of viral infection in human HOS cells pretreated for 3 hrs before viral infection by luciferase reporter gene assay
# Assay type: functional, organism-based
# CONDITIONS USED: Human immunodeficiency virus 1, HOS
Entries and their pEC50 values follow.
The quantity pEC50 is defined as the negative base-10 logarithm of the molar concentration.

Here are 8 compounds together with their reported answers.
O=C1c2ccc(O)c(O)c2C(=O)N1Cc1ccc(F)c(F)c1; 5.23
O=C1c2c(ccc(O)c2O)CN1Cc1cccc(Cl)c1F; 6.21
O=C1c2c(ccc(O)c2O)CN1Cc1cccc(I)c1; 5.97
O=C1c2ccc(O)c(O)c2C(=O)N1Cc1ccc(Cl)c(Cl)c1; 5.63
O=C1c2c(ccc(O)c2O)CN1Cc1cc(F)cc(F)c1; 5.62
O=C1c2c(ccc(O)c2O)CN1Cc1cc(Cl)c(F)cc1F; 6.19
O=C1c2c(ccc(O)c2O)CN1Cc1cccc(Br)c1; 6.23
O=C1c2c(ccc(O)c2O)CN1Cc1cccc(Cl)c1; 6.27

Field pEC50 (entry "O=C1c2c(ccc(O)c2O)CN1Cc1ccc(F)c(Cl)c1" ) reads 6.32

Field pEC50 (entry "O=C1c2c(ccc(O)c2O)CN1Cc1cc(F)ccc1F" ) reads 5.91

Field pEC50 (entry "O=C1c2c(ccc(O)c2O)CN1Cc1ccc(F)c(F)c1" ) reads 5.97

Field pEC50 (entry "O=C1c2ccc(O)c(O)c2C(=O)N1Cc1cc(Cl)c(F)cc1F" ) reads 5.35

Field pEC50 (entry "O=C1c2c(ccc(O)c2O)CN1Cc1cccc(F)c1" ) reads 5.97

====

# TARGET SYSTEM: UniProt Q7ZJM1
# TEST METHOD NOTES: Inhibition of HIV1 integrase 3'-processing activity in presence of magnesium
MEASURED METRIC: pIC50
The quantity pIC50 is defined as the negative base-10 logarithm of the molar concentration.

O=C1c2c(ccc(O)c2O)CN1Cc1cc(F)cc(F)c1; 3.63
O=C1c2ccc(O)c(O)c2C(=O)N1Cc1cccc(I)c1; 4.07
O=C1c2c(ccc(O)c2O)CN1Cc1ccc(F)cc1F; 4.43
O=C1c2c(ccc(O)c2O)CN1Cc1cccc(F)c1F; 4.14
O=C1c2ccc(O)c(O)c2C(=O)N1Cc1cc(F)c(F)cc1F; 4.27

Field pIC50 (entry "O=C1c2ccc(O)c(O)c2C(=O)N1Cc1ccc(F)cc1F" ) reads 4.80

Field pIC50 (entry "O=C1c2ccc(O)c(O)c2C(=O)N1Cc1c(F)cccc1F" ) reads 3.99

Field pIC50 (entry "O=C1c2ccc(O)c(O)c2C(=O)N1Cc1c(F)cccc1Cl" ) reads 4.27

Field pIC50 (entry "Cc1cc(CN2C(=O)c3ccc(O)c(O)c3C2=O)ccc1F" ) reads 4.96

Field pIC50 (entry "O=C1c2c(ccc(O)c2O)CN1Cc1c(F)cccc1F" ) reads 4.15

Field pIC50 (entry "O=C1c2c(ccc(O)c2O)CN1Cc1cccc(Br)c1" ) reads 3.58

Field pIC50 (entry "O=C1c2ccc(O)c(O)c2C(=O)N1Cc1ccc(F)c(F)c1" ) reads 4.57

Field pIC50 (entry "O=C1c2ccc(O)c(O)c2C(=O)N1Cc1c(F)ccc(F)c1F" ) reads 3.80

Field pIC50 (entry "O=C1c2c(ccc(O)c2O)CN1Cc1cccc(Cl)c1F" ) reads 4.44

Field pIC50 (entry "O=C1c2c(ccc(O)c2O)CN1Cc1ccc(F)c(F)c1F" ) reads 3.82

Field pIC50 (entry "O=C1c2ccc(O)c(O)c2C(=O)N1Cc1cc(F)cc(F)c1" ) reads 4.32
